Experiment: self-splicing fitness, log relative to wild type (ln ratio); higher = more splicing; Tetrahymena group I intron in knt gene, E. coli kanamycin selection, DiMSum; sequences stand for … in CUCUCU…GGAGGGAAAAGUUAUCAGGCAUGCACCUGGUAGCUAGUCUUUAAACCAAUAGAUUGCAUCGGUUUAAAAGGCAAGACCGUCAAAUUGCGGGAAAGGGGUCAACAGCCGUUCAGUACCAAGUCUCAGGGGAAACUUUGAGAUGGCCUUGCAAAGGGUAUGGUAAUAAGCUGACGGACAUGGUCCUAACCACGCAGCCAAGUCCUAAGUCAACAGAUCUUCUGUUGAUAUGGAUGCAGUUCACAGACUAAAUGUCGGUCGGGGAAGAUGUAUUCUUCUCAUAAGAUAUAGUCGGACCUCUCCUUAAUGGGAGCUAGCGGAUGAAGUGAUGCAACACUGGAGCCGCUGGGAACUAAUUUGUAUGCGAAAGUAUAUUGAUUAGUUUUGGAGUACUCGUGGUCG;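 note: selection with 25 µg/mL kanamycin versus none on LB agar overnight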
Conditions: 37 °C
Listed below: self-splicing fitness (ln) values for each entry.
Please give only the number in your answer, with no unit.

Sample answers from the record:
• AAACAGCAAUAUUACGGGCU = -1.95
• AGACAGCAAUAUUACGCCUC = -2.08
• GGAGAGCAAUAUUACGUCAU = -2.61

Prompt line: Which self-splicing fitness (ln) is listed for CCAUAGCAAUAUUACGUGUG ?
Response line: -1.07

Prompt line: Requested field: self-splicing fitness (ln). Item: UCCUAGCAAUAUUACGUACG
Response line: -1.78

Prompt line: I'd like to know its self-splicing fitness (ln). The sequence in question is UGAGAGCAAUAUUACGACCA
Response line: -1.14

Prompt line: Query (sequence): GCGUAGCAAUAUUACGCUAG ; field requested: self-splicing fitness (ln)
Response line: -2.54

Prompt line: Fill in: self-splicing fitness (ln) of AUUCAGCAAUAUUACGCCCC is ___
Response line: 0.082

Prompt line: Sample GCAAAGCAAUAUUACGUCUA — what was its self-splicing fitness (ln)?
Response line: -0.637

Prompt line: self-splicing fitness (ln) for GUGAAGCAAUAUUACGUAGU ?
Response line: -1.1

Prompt line: Quick one: self-splicing fitness (ln) of CAGAAGCAAUAUUACGAGGG ?
Response line: -1.18

Prompt line: Please give the measured self-splicing fitness (ln) for this sequence: UGUGAGCAAUAUUACGCGCA
Response line: -0.203

Prompt line: Entry under review: CCCUAGCAAUAUUACGACUA . Reported self-splicing fitness (ln)?
Response line: -2.21

Prompt line: Can you look up the measured self-splicing fitness (ln) of UAGGAGCAAUAUUACGGUUU for me?
Response line: -3.45

---

Assay: self-splicing fitness, log relative to wild type (ln ratio); higher = more splicing; Tetrahymena group I intron in knt gene, E. coli kanamycin selection, DiMSum; sequences stand for … in CUCUCU…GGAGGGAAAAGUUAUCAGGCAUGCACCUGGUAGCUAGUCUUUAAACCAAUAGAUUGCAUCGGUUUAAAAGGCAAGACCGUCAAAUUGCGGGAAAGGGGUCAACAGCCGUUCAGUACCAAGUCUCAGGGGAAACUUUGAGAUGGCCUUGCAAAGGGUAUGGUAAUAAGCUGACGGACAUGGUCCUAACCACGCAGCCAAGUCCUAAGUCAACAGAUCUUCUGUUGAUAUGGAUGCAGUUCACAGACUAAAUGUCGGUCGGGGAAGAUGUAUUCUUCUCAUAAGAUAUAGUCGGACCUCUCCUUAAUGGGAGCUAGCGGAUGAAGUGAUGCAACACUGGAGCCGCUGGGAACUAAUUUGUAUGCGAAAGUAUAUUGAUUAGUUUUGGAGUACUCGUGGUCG
Settings: 30 °C
Label rule, in plain words: self-splicing fitness (ln) of -2 and up is MET, under -2 is NOT MET.

- GUUUAGCAAUAUUACGCAGU: NOT MET
- UACCAGCAAUAUUACGGACA: MET
- GUGUAGCAAUAUUACGGUUU: MET
- AGAAAGCAAUAUUACGGGUA: MET
- UUCAAGCAAUAUUACGGUUA: MET
- CAACAGCAAUAUUACGUGCU: NOT MET

Prompt line: API: above_or_equal(metric=self-splicing fitness (ln), cutoff=-2) for item GUCGAGCAAUAUUACGGUCU
Response line: NOT MET
